Biological target: T1, RSV F glycoprotein (NUF4) (respiratory syncytial virus)
T1 chain 1: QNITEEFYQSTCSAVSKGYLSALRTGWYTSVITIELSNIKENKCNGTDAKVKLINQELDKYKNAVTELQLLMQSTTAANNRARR
T1 chain 2: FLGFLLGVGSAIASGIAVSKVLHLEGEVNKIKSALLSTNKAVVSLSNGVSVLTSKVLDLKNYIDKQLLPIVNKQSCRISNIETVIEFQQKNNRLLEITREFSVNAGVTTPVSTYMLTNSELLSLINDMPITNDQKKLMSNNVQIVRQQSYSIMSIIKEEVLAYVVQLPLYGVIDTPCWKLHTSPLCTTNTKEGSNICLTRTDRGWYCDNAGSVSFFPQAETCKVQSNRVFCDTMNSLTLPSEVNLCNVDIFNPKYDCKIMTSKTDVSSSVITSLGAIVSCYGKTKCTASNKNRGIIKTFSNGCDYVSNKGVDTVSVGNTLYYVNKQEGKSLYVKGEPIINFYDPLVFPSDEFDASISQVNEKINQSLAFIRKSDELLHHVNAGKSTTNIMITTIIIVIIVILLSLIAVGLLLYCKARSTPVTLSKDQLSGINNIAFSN
Assay: SPR (BIAcore), mAb vs NUF4 (1:1)
attribute measured: kon (M⁻¹ s⁻¹)
Field format: number, assumed M⁻¹ s⁻¹, no unit text.

Field: example entries. Status: answers known.
binder="A17d4(1) IgG (antibody, V domains shown) VH: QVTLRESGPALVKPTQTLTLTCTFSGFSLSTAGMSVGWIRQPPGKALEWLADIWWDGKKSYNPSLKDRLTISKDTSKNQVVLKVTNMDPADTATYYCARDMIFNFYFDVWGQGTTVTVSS VL: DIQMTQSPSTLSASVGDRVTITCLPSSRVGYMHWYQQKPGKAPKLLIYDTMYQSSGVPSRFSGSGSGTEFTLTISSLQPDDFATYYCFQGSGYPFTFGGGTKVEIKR" readout_units="M⁻¹ s⁻¹" observed_value=499000
binder="P12f2 IgG (antibody, V domains shown) VH: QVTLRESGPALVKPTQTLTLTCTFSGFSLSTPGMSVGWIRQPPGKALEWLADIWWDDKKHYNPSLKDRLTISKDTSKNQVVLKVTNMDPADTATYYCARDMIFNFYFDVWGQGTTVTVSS VL: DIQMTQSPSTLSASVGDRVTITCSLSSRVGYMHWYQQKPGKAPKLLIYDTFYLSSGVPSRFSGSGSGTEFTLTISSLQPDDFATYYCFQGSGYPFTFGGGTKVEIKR" readout_units="M⁻¹ s⁻¹" observed_value=541000
binder="A13c4 IgG (antibody, V domains shown) VH: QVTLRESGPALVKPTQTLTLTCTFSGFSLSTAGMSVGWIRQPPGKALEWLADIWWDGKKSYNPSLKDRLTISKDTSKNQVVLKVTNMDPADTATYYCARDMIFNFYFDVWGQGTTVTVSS VL: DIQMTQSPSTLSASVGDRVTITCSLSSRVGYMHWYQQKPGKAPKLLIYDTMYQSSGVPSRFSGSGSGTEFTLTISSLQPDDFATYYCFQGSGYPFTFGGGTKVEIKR" readout_units="M⁻¹ s⁻¹" observed_value=365000
binder="P12f4 IgG (antibody, V domains shown) VH: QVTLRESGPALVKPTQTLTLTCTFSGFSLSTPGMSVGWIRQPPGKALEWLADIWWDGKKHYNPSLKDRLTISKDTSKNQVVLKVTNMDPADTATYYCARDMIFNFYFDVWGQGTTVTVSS VL: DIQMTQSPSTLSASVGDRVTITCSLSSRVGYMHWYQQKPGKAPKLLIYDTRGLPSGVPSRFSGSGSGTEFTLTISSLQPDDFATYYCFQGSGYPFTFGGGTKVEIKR" readout_units="M⁻¹ s⁻¹" observed_value=943000
binder="A8c7 IgG (antibody, V domains shown) VH: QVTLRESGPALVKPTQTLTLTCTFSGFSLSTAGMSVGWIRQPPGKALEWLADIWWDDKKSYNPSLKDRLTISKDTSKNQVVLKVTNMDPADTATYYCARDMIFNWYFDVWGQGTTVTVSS VL: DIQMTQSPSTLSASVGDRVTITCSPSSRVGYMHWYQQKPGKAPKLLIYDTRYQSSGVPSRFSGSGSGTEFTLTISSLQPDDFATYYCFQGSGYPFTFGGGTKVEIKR" readout_units="M⁻¹ s⁻¹" observed_value=825000
binder="P11d4 IgG (antibody, V domains shown) VH: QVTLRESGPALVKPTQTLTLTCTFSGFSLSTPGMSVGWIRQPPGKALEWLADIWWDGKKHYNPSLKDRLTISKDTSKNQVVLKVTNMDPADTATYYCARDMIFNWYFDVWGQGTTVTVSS VL: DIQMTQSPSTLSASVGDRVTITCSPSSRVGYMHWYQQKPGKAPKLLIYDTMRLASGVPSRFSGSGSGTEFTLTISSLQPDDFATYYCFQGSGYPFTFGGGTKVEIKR" readout_units="M⁻¹ s⁻¹" observed_value=904000

Q: Recorded kon for A12a6 IgG (antibody, V domains shown) VH: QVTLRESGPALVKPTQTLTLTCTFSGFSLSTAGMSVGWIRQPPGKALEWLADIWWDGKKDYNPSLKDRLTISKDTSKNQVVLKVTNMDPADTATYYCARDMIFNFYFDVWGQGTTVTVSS VL: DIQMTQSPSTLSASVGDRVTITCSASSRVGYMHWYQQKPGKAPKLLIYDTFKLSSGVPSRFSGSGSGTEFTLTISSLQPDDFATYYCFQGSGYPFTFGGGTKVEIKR , please?
A: 400000
